Origin of the recorded values: patent US10925971B2

- TARGET: T1, monomeric human PRLR (hPRLR.mmh; SEQ ID NO:401) (Homo sapiens, UniProt P16471)
- T1 construct: soluble monomeric (hPRLR.mmh); mmh (myc-myc-hexahistidine) (C)
- T1 sequence (P16471 with tags, fused parts or gaps): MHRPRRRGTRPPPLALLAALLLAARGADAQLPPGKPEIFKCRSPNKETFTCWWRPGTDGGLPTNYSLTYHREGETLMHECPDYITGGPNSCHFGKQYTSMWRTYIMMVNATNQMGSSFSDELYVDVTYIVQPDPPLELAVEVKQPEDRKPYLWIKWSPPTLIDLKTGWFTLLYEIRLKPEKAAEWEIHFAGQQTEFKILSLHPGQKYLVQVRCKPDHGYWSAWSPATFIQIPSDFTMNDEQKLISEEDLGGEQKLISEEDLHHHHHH
- ASSAY COMMENT: Surface plasmon resonance (Biacore T200), antibody-capture format
- Type: binding
- EXPERIMENTAL SETUP: 25° C., analyte hPRLR.mmh
Entries and their ka

MOLECULE	UNIT INFO	ka
H1H6797P: fully human anti-PRLR antibody, human IgG1 Fc; HCVR/LCVR SEQ ID NOs 178/186 (antibody, V domains shown) VH: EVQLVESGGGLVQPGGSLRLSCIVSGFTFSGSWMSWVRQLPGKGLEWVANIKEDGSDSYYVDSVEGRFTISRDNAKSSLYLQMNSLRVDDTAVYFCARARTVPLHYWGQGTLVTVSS VL: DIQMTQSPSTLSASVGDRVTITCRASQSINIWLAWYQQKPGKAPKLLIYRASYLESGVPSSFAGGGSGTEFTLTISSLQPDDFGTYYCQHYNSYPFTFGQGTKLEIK	M/s	1.13e+06
H1H6785P: fully human anti-PRLR antibody, human IgG1 Fc; HCVR/LCVR SEQ ID NOs 98/106 (antibody, V domains shown) VH: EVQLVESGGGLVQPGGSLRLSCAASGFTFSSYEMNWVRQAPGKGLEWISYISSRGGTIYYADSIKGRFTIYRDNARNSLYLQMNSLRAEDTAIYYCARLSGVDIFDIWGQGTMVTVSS VL: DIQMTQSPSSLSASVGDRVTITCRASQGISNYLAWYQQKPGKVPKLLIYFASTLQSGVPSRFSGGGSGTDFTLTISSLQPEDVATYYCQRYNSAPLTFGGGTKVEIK	M/s	301000
H1H6966N: anti-PRLR antibody, human IgG1 Fc form of H2M6966N of Table 1; HCVR/LCVR SEQ ID NOs 338/346 (antibody, V domains shown, human IgG1 Fc) VH: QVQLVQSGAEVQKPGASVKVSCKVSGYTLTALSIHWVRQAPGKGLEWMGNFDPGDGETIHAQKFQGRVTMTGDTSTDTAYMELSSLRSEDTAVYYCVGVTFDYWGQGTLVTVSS VL: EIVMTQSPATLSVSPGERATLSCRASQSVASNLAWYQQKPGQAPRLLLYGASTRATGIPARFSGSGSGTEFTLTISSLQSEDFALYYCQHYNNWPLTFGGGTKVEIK	M/s	852000
H1H6967N: anti-PRLR antibody, human IgG1 Fc form of H2M6967N of Table 1; HCVR/LCVR SEQ ID NOs 354/362 (antibody, V domains shown, human IgG1 Fc) VH: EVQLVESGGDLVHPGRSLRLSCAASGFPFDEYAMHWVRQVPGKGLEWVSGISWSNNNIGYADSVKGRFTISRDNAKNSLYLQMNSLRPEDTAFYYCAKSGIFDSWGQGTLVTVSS VL: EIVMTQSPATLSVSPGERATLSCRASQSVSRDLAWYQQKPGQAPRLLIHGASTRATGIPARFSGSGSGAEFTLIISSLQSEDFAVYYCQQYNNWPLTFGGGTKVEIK	M/s	246000
H1H6801P: fully human anti-PRLR antibody, human IgG1 Fc; HCVR/LCVR SEQ ID NOs 210/218 (antibody, V domains shown) VH: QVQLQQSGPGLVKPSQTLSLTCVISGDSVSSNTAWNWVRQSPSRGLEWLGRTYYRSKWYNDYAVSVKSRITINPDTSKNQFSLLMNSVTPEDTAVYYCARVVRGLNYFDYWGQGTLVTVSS VL: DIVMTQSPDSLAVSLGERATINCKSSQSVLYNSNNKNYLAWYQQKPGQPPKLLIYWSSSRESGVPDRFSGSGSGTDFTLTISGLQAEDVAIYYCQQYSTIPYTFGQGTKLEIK	M/s	846000
H1H6795P: fully human anti-PRLR antibody, human IgG1 Fc; HCVR/LCVR SEQ ID NOs 162/170 (antibody, V domains shown) VH: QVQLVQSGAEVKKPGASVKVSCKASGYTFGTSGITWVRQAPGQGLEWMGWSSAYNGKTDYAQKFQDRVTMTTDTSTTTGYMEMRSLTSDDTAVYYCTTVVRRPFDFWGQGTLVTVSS VL: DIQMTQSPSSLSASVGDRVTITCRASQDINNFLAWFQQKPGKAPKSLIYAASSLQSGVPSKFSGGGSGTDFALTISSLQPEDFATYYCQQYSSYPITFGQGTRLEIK	M/s	1.17e+06
H1H6762P: fully human anti-PRLR antibody, human IgG1 Fc; HCVR/LCVR SEQ ID NOs 2/10 (antibody, V domains shown) VH: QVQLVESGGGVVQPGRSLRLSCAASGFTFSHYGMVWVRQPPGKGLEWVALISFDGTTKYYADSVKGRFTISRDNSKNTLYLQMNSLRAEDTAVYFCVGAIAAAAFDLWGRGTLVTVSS VL: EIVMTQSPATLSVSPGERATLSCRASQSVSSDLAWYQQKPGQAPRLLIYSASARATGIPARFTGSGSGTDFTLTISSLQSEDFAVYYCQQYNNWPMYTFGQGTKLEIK	M/s	692000
H1H6958N2: anti-PRLR antibody, receptor blocking, human IgG1 Fc form of H2M6958N2 of Table 1; HCVR/LCVR SEQ ID NOs 290/298 (antibody, V domains shown) VH: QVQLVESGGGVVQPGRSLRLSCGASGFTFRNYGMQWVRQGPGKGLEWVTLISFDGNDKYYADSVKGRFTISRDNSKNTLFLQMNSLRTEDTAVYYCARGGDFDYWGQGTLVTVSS VL: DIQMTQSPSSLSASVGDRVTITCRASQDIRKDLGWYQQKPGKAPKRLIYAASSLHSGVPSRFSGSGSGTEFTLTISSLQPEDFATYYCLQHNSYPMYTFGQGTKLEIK	M/s	233000
